# EXPERIMENTAL_TARGET: T1, recombinant biotinylated human CD71 extracellular domain (human, UniProt P02786 89-760, biotinylated)
# T1 construct: extracellular domain; also called hCD71; huCD71 ECD
# T1 sequence (P02786 other isoform, or with tags, fused parts or gaps): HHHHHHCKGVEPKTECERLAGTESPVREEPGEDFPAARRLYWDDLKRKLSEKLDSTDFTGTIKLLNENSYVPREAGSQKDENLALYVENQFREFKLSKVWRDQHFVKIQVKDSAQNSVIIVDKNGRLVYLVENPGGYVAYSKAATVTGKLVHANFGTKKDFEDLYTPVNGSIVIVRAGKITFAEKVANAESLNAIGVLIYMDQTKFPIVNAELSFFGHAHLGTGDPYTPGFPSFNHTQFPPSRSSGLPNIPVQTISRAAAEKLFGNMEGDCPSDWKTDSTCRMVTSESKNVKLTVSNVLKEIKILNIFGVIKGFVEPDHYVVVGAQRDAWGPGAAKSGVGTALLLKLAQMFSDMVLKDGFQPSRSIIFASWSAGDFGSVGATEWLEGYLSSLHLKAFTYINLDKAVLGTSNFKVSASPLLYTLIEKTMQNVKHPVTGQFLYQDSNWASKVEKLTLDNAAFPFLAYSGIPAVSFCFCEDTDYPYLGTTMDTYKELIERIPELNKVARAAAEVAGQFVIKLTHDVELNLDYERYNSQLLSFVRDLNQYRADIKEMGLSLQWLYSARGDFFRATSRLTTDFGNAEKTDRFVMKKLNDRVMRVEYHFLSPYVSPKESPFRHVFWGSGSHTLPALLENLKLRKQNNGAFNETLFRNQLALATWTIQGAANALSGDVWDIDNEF
# EXPERIMENTAL_DETAILS: solution ELISA, signal ratio to HSA
hCD71:HSA of 30 or higher: y. Under 30: n.

Q: I'd appreciate it if you could say whether SEQ ID NO 179 (designed binder, FN3 domain) MLPAPKNLVVSRVTEDSARLSWTAPDAAFDSFPIAYAEPRPDGEAIVLTVPGSERSYDLTGLKPGTEYSVLIHGVKGGLLSSPLSAFFTT has hCD71:HSA at least equal to 30.
A: y

Q: Another binder to look at: SEQ ID NO 143 (designed binder, FN3 domain) MLPAPKNLVVSRVTEDSARLSWTAPDAAFDSFYIAYAEPRPDGEAILLFVPGSERSYDLTGLKPGTEYSVLIHGVKGGLLSSPLVAHFTT
A: y

Q: // next record SEQ ID NO 122 (designed binder, FN3 domain) MLPAPKNLVVSRVTEDSARLSWTAPDAAFDSFYIAYAEPRPDGEAIILVVPGSERSYDLTGLKPGTEYSVLIHGVKGGLLSSPLSAHFTT
A: y

Q: Okay, and SEQ ID NO 110 (designed binder, FN3 domain) MLPAPKNLVVSRVTEDSARLSWTAPDAAFDSFFIGYLEPQPPGEAIYLTVPGSERSYDLTGLKPGTEYNVTIQGVKGGFPSYPLDASFTT ?
A: y

Q: And the next one, SEQ ID NO 111 (designed binder, FN3 domain) MLPAPKNLVVSRVTEDSARLSWTAPDAAFDSFFIGYLEPQPPGEAIDLGVPGSERSYDLTGLKPGTEYNVTIQGVKGGFPSMPLDPLEAYFTT ?
A: n

Q: What do you get for SEQ ID NO 153 (designed binder, FN3 domain) MLPAPKNLVVSRVTEDSARLSWTAPDAAFDSFYIAYAEPRPDGEAIALHVPGSERSYDLTGLKPGTEYSVLIHGVKGGLLSSPLSAIFTT ?
A: n

Q: Next entry: SEQ ID NO 164 (designed binder, FN3 domain) MLPAPKNLVVSRVTEDSARLSWTAPDAAFDSFYIAYAEPRPDGEAIILRVPGSERSYDLTGLKPGTEYSVLIHGVKGGLLSSPLVAIFTT
A: y

Q: Another binder to look at: SEQ ID NO 201 (designed binder, FN3 domain) MLPAPKNLVVSRVTEDSARLSWTAPDAAFDSFYIAYAEPRPDGEAISLWVPGSERSYDLTGLKPGTEYSVLIHGVKGGLLSSPLLAHFTT
A: n
